system: Sphingosine kinase 2 (Homo sapiens) (UniProt Q9NRA0);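 note: values reported as mean percent inhibition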
Sequence (Q9NRA0 whole entry): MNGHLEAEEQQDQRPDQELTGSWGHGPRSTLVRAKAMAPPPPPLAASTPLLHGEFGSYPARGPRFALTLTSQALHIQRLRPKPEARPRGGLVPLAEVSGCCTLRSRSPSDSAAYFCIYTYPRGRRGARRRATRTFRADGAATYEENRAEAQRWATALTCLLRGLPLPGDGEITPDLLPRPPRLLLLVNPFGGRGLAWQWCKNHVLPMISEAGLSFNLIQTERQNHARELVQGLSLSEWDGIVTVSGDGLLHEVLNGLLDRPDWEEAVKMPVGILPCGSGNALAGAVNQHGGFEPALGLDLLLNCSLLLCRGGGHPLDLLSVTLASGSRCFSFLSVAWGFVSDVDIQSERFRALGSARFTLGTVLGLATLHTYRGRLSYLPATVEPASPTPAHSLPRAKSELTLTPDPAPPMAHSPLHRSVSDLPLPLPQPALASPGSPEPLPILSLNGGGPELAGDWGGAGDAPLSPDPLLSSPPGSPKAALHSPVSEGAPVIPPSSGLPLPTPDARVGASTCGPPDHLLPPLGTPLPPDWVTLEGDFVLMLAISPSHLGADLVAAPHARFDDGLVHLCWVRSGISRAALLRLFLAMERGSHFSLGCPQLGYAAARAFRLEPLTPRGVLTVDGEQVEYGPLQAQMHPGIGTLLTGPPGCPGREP
condition-summary: at 0.1 µM
The following compounds are shown together with reported inhibition values.
Please respond with the number in % and leave the unit unwritten.

Cc1nn(C)c2cc(N(C)c3ccnc(Nc4cccc(S(N)(=O)=O)c4)n3)ccc12 = 0.44

Briefly, inhibition measured for Nc1ncnc2occ(-c3ccc(NC(=O)Nc4cccc(C(F)(F)F)c4)cc3)c12 : 0.27

compound CS(=O)(=O)Nc1ccc(N/C=C2\C(=O)Nc3ccccc32)cc1 , inhibition observed: -1.15

inhibition measured on CC(=O)Nc1cccc(C#Cc2cncnc2Nc2ccc(OCc3cccc(F)c3)c(Cl)c2)n1 = 1.73

# compound CCc1cccc(NC(=O)Nc2ccc(Oc3ccc4nc(NC(=O)OC)[nH]c4c3)cc2)c1 ; its inhibition = -1.39

The recorded inhibition for Nc1nc(-c2ccccn2)c(-c2ccc3ncccc3n2)s1 is -0.63

Lab note: CS(=O)(=O)CCNCc1ccc(-c2ccc3ncnc(Nc4ccc(OCc5ccccc5)c(Cl)c4)c3c2)o1 gave inhibition of 1.2

Short answer for Fc1cccc(COc2ccc(Nc3ncnc4sc(-c5cccs5)cc34)cc2Cl)c1 : inhibition was -2.31

# inhibition of CN(C)c1cc2c(Nc3ccc4nc(Cc5ccccc5)[nH]c4c3)ncnc2cn1 = -0.89

Summary for this compound, Cc1ccc(NC(=O)c2ccnc(N3CCCC3)c2)cc1-c1ccc(C(=O)NCC2CC2)cc1 : inhibition is 0.74

Cc1cccc(-c2n[nH]cc2-c2ccc3ncccc3n2)n1 yielded inhibition of 0.61

Record CNC(=O)c1cncc(/C=C/c2c(Cl)cccc2Cl)c1 , field inhibition: 0.89

Entry COc1cc(C)c(NC(=O)CN(C)C)cc1Nc1nc(Nc2cccc(F)c2C(N)=O)c2cc[nH]c2n1 , inhibition reported as -0.13

###

system: 5'-AMP-activated protein kinase catalytic subunit alpha-1 (Homo sapiens);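 note: mean percent inhibition of the AMPK A1B1G1 complex (alpha1 beta1 gamma1) in the GSK PKIS kinase inhibitor screen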
condition-summary: at 1 µM
value-kind: inhibition (%)
Number in %, nothing else.

CCN1CCC(CC(=O)Nc2n[nH]c3nc(-c4cccs4)c(Br)cc23)CC1 = 4.08
O=C(Nc1n[nH]c2nc(-c3ccco3)c(Br)cc12)C1CC1 = 3.4
COc1cccc(-n2ncc3c(N/N=C/c4cccc(F)c4)ncnc32)c1 = 5.15
COc1ccccc1Nc1ncc(-c2ccccc2)o1 = 3.31
O=C1NC(=O)C(c2cccc(Cl)c2)=C1Nc1ccc(O)c(Cl)c1 = 8.5

Summary for this molecule, COc1cc(C)c(NC(=O)CN(C)C)cc1Nc1nc(Nc2cccc(F)c2C(N)=O)c2cc[nH]c2n1 : inhibition is 0.78

Measured inhibition, COC(=O)Nc1nc2cc(Oc3ccc(NC(=O)Nc4cccc(C(=O)O)c4)cc3)ccc2[nH]1 : 4.37

The reported inhibition of the molecule CC(C)=Cc1cccc2c1/C(=N/Nc1ccc(S(N)(=O)=O)cc1)C(=O)N2 was 56.6

Consider COc1cc2ncn(-c3cc(OCc4ccccc4Cl)c(C(N)=O)s3)c2cc1OC . Its measured inhibition is 10.7

Memo: [O-][S+]1CCN(Cc2ccc(-c3ccc4ncnc(Nc5ccc(OCc6ccccc6)c(F)c5)c4c3)o2)CC1 , reported inhibition: -0.08

###

Reported inhibition values for a set of compounds
system: Tyrosine-protein kinase receptor UFO (Homo sapiens)
condition-summary: at 1 µM
Description: GSK_PKIS: AXL mean inhibition at 1 uM [Nanosyn]
Lab book: enter the figure in %, no units written.

Field: example entries. Status: answers known.
CC(=O)Nc1cccc(C#Cc2cncnc2Nc2ccc(OCc3cccc(F)c3)c(Cl)c2)n1 = 1.38
NC(=O)c1ccc(-c2nc(-c3ccccn3)c(-c3ccc4c(c3)OCO4)[nH]2)cc1 = -1.2
CCn1c(-c2nonc2N)nc2c(C#CC(C)(C)O)nc(OC[C@@H](N)c3ccccc3)cc21 = 3.03
COc1cc(C)c(NC(=O)CN(C)C)cc1Nc1nc(Nc2cccc(F)c2C(N)=O)c2cc[nH]c2n1 = 63.7
O=C1NC(=O)C(N2CCc3ccccc32)=C1c1ccc(Cl)cc1 = -2.89
Fc1cccc(COc2ccc(Nc3ncnc4sc(-c5cccs5)cc34)cc2Cl)c1 = 1.51

Reported inhibition ( Nc1nc(-c2ccccn2)c(-c2ccc3ncccc3n2)s1 ) = -4.26

Summary for this compound, COc1cc2ncn(-c3cc(OCc4ccccc4Cl)c(C(N)=O)s3)c2cc1OC : inhibition is 2.44

[O-][S+]1CCN(Cc2ccc(-c3ccc4ncnc(Nc5ccc(OCc6ccccc6)c(F)c5)c4c3)o2)CC1 has a reported inhibition of -2.42

Record COc1ccccc1Nc1ncc(-c2ccccc2)o1 , field inhibition: -5.15

###

Documented inhibition across a set of compounds
system: Serine/threonine-protein kinase pim-2 (Homo sapiens);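 note: reported value is the mean percent inhibition of PIM2, measured in the GSK PKIS kinase inhibitor set screen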
condition-summary: at 0.1 µM
Lab book: enter the figure in %, no units written.

Known results for compounds:
COc1cc2c(cc1Nc1nc(N3CCc4ccccc43)c3cc[nH]c3n1)N(C(=O)CN(C)C)CC2 = -0.35
Cc1ccc(NC(=O)c2ccnc(N3CCCC3)c2)cc1-c1ccc(C(=O)NCC2CC2)cc1 = -2.62
COc1cc2ncn(-c3cc(O[C@H](C)c4ccccc4Cl)c(C(N)=O)s3)c2cc1OC = 0.26
Cc1nn(C)c2cc(N(C)c3ccnc(Nc4cccc(S(N)(=O)=O)c4)n3)ccc12 = 0.22

Lab note: measured inhibition of NS(=O)(=O)c1cccc(-c2ccc3c(NC(=O)C4CC4)n[nH]c3c2)c1 was 0.46

The recorded inhibition for COc1cc2ncn(-c3cc(OCc4ccccc4Cl)c(C(N)=O)s3)c2cc1OC is 1.11

O=C1NC(=O)C(c2ccc(Cl)cc2)=C1Nc1ccc(Cl)c(C(=O)O)c1 yielded inhibition of 1.05

inhibition measured on CC1=C(C(=O)Nc2ccc3[nH]ncc3c2)C(c2ccc(Cl)c(Cl)c2)CC(=O)N1 (stereo not given) = 0.05

Form field inhibition, entry O=C1NC(=O)C(c2cccc(Cl)c2)=C1Nc1ccc(O)c(Cl)c1 : 0.87

The compound Cc1cc(O)cc(C)c1/C=C/c1cncc(-c2nn[nH]n2)c1 showed inhibition equal to -3.3

###

system: Interleukin-1 receptor-associated kinase 4 (Homo sapiens);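 note: reported figure is the mean inhibition of IRAK4 activity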
condition-summary: at 0.1 µM
value-kind: inhibition
Provide the measurement as a number trailed by its unit.

Recorded inhibition, per entry:
N#Cc1c(NC(=O)c2cccc3ccccc23)sc2c1CCCC2 = 2.64%
COC(=O)Nc1nc2cc(Oc3ccc(NC(=O)Nc4cccc(C(=O)O)c4)cc3)ccc2[nH]1 = 1.45%
NC(=O)c1ccc(-c2nc(-c3ccccn3)c(-c3ccc4c(c3)OCO4)[nH]2)cc1 = 2.26%
COc1cccc(-n2ncc3c(N/N=C/c4cccc(F)c4)ncnc32)c1 = 3.28%
NC(=O)c1cccc(Nc2nccc(Nc3cccc4[nH]ncc34)n2)c1 = -3.26%

// sample COc1ccc(-c2ccncc2)cc1C(N)=O , its inhibition was 1.8%

Data point: CS(=O)(=O)Nc1ccc(N/C=C2\C(=O)Nc3ccccc32)cc1 ; inhibition = -0.49%

Reported inhibition ( O=C1NC(=O)C(c2ccccc2Cl)=C1Nc1cccc(O)c1 ) = -2%

// recorded inhibition for COc1cc2ncn(-c3cc(OCc4ccccc4C(F)(F)F)c(C(N)=O)s3)c2cc1OC : 1.2%

# compound COc1ccc2cc(-c3c(-c4ccncc4)nc(-c4ccc([S+](C)[O-])cc4)n3C)ccc2c1 (stereo not given) ; its inhibition = 3.57%

###

system: Tyrosine-protein kinase Lyn (Homo sapiens) (UniProt P07948);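 note: mean percent inhibition of the LYN A splice variant of the kinase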
Sequence (P07948 2-512 limits assumed): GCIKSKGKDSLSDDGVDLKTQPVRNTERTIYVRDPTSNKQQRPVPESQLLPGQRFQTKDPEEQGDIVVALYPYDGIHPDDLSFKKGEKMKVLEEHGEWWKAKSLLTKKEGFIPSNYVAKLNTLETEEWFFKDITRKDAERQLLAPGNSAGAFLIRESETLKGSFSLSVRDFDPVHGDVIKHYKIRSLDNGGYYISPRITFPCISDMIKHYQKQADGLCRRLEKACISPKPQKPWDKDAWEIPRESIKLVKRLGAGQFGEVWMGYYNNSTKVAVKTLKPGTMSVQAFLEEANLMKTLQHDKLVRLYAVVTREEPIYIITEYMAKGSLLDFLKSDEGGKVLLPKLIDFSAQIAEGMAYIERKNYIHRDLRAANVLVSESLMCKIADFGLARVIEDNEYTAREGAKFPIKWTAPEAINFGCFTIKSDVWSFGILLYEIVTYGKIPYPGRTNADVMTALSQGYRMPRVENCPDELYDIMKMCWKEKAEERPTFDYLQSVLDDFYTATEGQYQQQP
condition-summary: at 1 µM
Description: GSK_PKIS: LYN A (splice variant) mean inhibition at 1 uM [Nanosyn]
Examples of molecules with documented inhibition follow.
Put your answer as a value accompanied by its unit after it.

Recorded inhibition, per entry:
O=C1NC(=O)C(c2cccc(Cl)c2)=C1Nc1ccc(O)c(Cl)c1 = 3.18%
CCCN1CCC=C(c2ccc(Nc3nc(Nc4ccccc4C(N)=O)c4cc[nH]c4n3)c(C)c2)C1 = 6.69%
CCCN1CCC(Oc2cc(Nc3nc(Nc4cccc(F)c4C(N)=O)c4cc[nH]c4n3)c(OC)cc2Cl)CC1 = 2.61%
CCn1c(-c2nonc2N)nc2cncc(C(=O)N3CC[C@H](N)C3)c21 = 7.74%
CS(=O)(=O)CCNCc1ccc(-c2ccc3ncnc(Nc4ccc(OCc5cccc(F)c5)c(C(F)(F)F)c4)c3c2)o1 = 6.94%

Proceed to the following item.
Recorded inhibition (molecule COC(=O)Nc1nc2cc(Oc3ccc(NC(=O)Nc4cccc(C(=O)O)c4)cc3)ccc2[nH]1 ): 5.81%

###

system: RAC-gamma serine/threonine-protein kinase (Homo sapiens) (UniProt Q9Y243)
Sequence (Q9Y243 whole entry): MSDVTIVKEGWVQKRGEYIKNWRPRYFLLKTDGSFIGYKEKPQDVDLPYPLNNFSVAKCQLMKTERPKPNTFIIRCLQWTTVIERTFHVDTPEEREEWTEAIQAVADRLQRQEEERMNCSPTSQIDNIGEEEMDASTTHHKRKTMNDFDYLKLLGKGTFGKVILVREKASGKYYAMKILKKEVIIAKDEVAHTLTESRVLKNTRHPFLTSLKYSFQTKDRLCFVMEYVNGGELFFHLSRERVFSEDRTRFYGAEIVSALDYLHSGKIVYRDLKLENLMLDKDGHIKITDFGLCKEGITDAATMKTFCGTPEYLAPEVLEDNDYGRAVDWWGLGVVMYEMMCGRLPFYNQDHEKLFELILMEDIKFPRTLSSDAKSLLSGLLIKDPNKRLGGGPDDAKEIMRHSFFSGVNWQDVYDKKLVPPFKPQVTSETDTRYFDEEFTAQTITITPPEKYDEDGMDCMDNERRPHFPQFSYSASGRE
condition-summary: at 0.1 µM
Description: GSK_PKIS: AKT3 mean inhibition at 0.1 uM [Nanosyn]
value-kind: inhibition (%)
Express the result in % but write the number alone.

Guide cases for inhibition, answers given:
COc1ccc(-c2nn3ncccc3c2-c2ccnc(Nc3ccc(Cl)c(C(F)(F)F)c3)n2)cc1 = 3.64
c1cnn2ncc(-c3ccnc(Nc4ccc5c(c4)OCCO5)n3)c2c1 = 1.09
CS(=O)(=O)CCNCc1nc(-c2ccc3ncnc(Nc4ccc(F)c(Cl)c4)c3c2)cs1 = 1.52
COC(=O)Nc1nc2cc(Oc3ccc(NC(=O)Nc4cccc(C(=O)O)c4)cc3)ccc2[nH]1 = -1.3
CN(C)c1cc2c(Nc3ccc4nc(Cc5ccccc5)[nH]c4c3)ncnc2cn1 = 1.37

Quick note, inhibition for CCn1c(-c2nonc2N)nc2c(N3CCCC3)nccc21 landed at -0.61

Just so you know, measured inhibition for CC(=O)Nc1cccc(C#Cc2cncnc2Nc2ccc(OCc3cccc(F)c3)c(Cl)c2)n1 came out at -1.1

// field: inhibition; key: Cc1nn(C)c2cc(N(C)c3ccnc(Nc4cccc(S(N)(=O)=O)c4)n3)ccc12 ; value = 1.22

response.value for COC(=O)Nc1nc2cc(Oc3cccc(NC(=O)Nc4cc(C(F)(F)F)ccc4F)c3)ccc2[nH]1 (field: inhibition) = 0.98

Reported inhibition ( O=C1NC(=O)C(c2ccc(Cl)cc2)=C1Nc1ccc(Cl)c(C(=O)O)c1 ) = -1.65
